// provenance: PubChem BioAssay (NCI)

Test system: TK-10 renal
test_summary: NCI-60 one-dose screen, 48 h (100 = growth as untreated, 0 = no growth, -100 = all killed)
stated_conditions: 10 µM unless noted
About 83,000 compounds went through this panel and 20% of them were active in at least one assay; those are over-represented in the sample as a whole.
endpoint_name: growth (%)

>>> recorded_number("O=C(Nc1nc2ccc(F)cc2s1)c1cccnc1Nc1ccc(Cl)cc1Cl")
11.4
>>> recorded_number("Cc1ccc(/C=C(\\C#N)n2nc3cccc(F)c3n2)cc1")
90.8
>>> recorded_number("COc1ccc(/C=C(\\C#N)n2nnc3c(F)cccc32)cc1")
45.3
>>> recorded_number("Cc1cc2[nH]c(=O)c3c4ncccc4cn3c2cc1C")
18.1
>>> recorded_number("Cc1ccc(C(=O)N/N=C/c2cccc([N+](=O)[O-])c2)cn1")
118
>>> recorded_number("O=C1CSC(c2c(Cl)cccc2Cl)N1c1nc(Cl)cc(=O)[nH]1 (stereo unspecified)")
161
